Provide the reported Plant response rating, Barnyardgrass of each item.
- System: barnyardgrass
- PROCEDURE_DETAILS: Test C flooded paddy test
- Type: in vivo, Echinochloa crus-galli
- EXPERIMENTAL_CONDITIONS: Flood, 62 g ai/ha; scale of 0 to 100 where 0 is no effect and 100 is complete control; 13 to 15 days
The reply should be a number, written without any unit.

In: Plant response rating, Barnyardgrass of CC(C)c1cccc(C2CNC(=O)C2C(=O)Nc2ccccc2F)c1 (stereo not drawn) on barnyardgrass?
Out: 30

In: Note, next up: O=C1NCC(Br)(c2ccccc2)C1C(=O)Nc1ccccc1F (stereo not drawn)
Out: 10

In: Let us now turn to O=C1NCC(c2cccc(F)c2)C1C(=O)Nc1ccccc1C(F)(F)F (racemic)
Out: 0

In: Then CC1(C)NC(=O)C(C(=O)Nc2ccccc2F)C1c1ccc(F)c(F)c1 (stereo not drawn) ?
Out: 0

In: What would you report for O=C1NCCC1C(=O)N(c1ccc(F)c(F)c1)c1ccccc1F (stereo not drawn) ?
Out: 0

In: Could you do the same for O=C1NCC(c2cccc(OC(F)F)c2)C1C(=O)Nc1ccccc1F (stereo not drawn) , please?
Out: 45

* * *

Kindly supply the reported Plant response rating, Foxtail, Green values for the records listed here.
- Tested on: foxtail, green
- PROCEDURE_DETAILS: Test D pre-/postemergence herbicide test
- Type: in vivo, Setaria viridis
- EXPERIMENTAL_CONDITIONS: Preemergence; 31 g ai/ha; scale 0 to 100 (0 no effect, 100 complete control)
Please reply with the value in numeric form only.

In: What value of Plant response rating, Foxtail, Green has been reported for the following compound? O=C1NCC(c2ccc(Cl)c(F)c2)C1C(=O)Nc1cccc(F)c1F (stereo not shown)
Out: 0

In: Likewise for O=C1NCC(c2ccc(F)c(C(F)(F)F)c2)C1C(=O)Nc1cccc(F)c1F (racemic) ?
Out: 15

In: Next record, please: O=C1NCC(c2ccc(C(F)(F)F)cc2)C1C(=O)Nc1ccccc1F (stereo not shown)
Out: 45

In: Now try O=C1NCC(c2ccc(C(F)(F)F)cc2)C1C(=O)Nc1cccc(F)c1F (stereo not shown) .
Out: 20

* * *

Exercise: state measured Kochia plant response rating for each of the compounds provided.
- Tested on: kochia
- PROCEDURE_DETAILS: Test A pre-/postemergence herbicide test
- Assay type: in vivo, Kochia scoparia
- EXPERIMENTAL_CONDITIONS: Preemergence, 500 g ai/ha; visual rating on 0 to 100 scale (0 no effect, 100 complete control)

In: Lab note: need Kochia plant response rating for O=C1NCC(c2ccc(Br)c(Br)c2)C1C(=O)Nc1ccc(F)cc1F (stereo not shown) on kochia, anyone have it?
Out: 0

In: And for O=C1NCC(c2cccc(OC(F)F)c2)C1C(=O)Nc1ccccc1F (stereo not shown) ?
Out: 80

In: // query: O=C1NCC(c2cccc(I)c2)C1C(=O)Nc1cccc(F)c1F (stereo not shown)
Out: 70

In: Follow-up entry: CC(C)c1cccc(C2CNC(=O)C2C(=O)Nc2ccccc2F)c1 (stereo not shown)
Out: 70

In: Now this one: O=C1NCC(c2ccc(SC(F)(F)F)cc2)C1C(=O)Nc1ccc(F)c(F)c1F (stereo not shown)
Out: 0

In: O=C1NCC(c2cccc(C(F)(F)F)c2)C1C(=O)Nc1ccc(F)c(F)c1F (stereo not shown) ?
Out: 80

In: Same for CCN1CC(c2ccc(C(F)(F)F)cc2)C(C(=O)Nc2cccc(F)c2F)C1=O (stereo not shown)
Out: 60
